As a worked illustration, we turn to pIC50 data collected for Kappa-type opioid receptor (Cavia porcellus, UniProt P41144).
Scale: negative log10 of molar concentration, which is what pIC50 denotes.

Consider the reported pIC50 for these molecules:
| SMILES NOTATION | TARGET UNDER TEST | pIC50 |
| --- | --- | --- |
| CC[C@H](C)[C@@H]1NC(=O)[C@H](CCCN=C(N)N)NC(=O)[C@H](CCCN=C(N)N)NC(=O)[C@H](NC(=O)[C@H](Cc2ccccc2)NC(=O)CNC(=O)CNC(=O)[C@@H](N)Cc2ccc(O)cc2)C(C)(C)SSC[C@@H](C(N)=O)NC(=O)[C@@H]2CCCN2C(=O)[C@H](CCCN=C(N)N)NC1=O | Kappa-type opioid receptor (Cavia porcellus, UniProt P41144) | 7.06 |
| CC[C@H](C)[C@@H]1NC(=O)[C@H](CCCN=C(N)N)NC(=O)[C@H](CCCN=C(N)N)NC(=O)[C@H](NC(=O)[C@H](Cc2ccccc2)NC(=O)CNC(=O)CNC(=O)[C@@H](N)Cc2ccc(O)cc2)CSSC(C)(C)[C@H](C(N)=O)NC(=O)[C@@H]2CCCN2C(=O)[C@H](CCCN=C(N)N)NC1=O | Kappa-type opioid receptor (Cavia porcellus, UniProt P41144) | 7.00 |
| CC[C@H](C)[C@@H]1NC(=O)[C@H](CCCN=C(N)N)NC(=O)[C@H](CCCN=C(N)N)NC(=O)[C@H](NC(=O)[C@H](Cc2ccccc2)NC(=O)CNC(=O)CNC(=O)[C@@H](N)Cc2ccc(O)cc2)C(C)(C)SSC[C@H](C(N)=O)NC(=O)[C@@H]2CCCN2C(=O)[C@H](CCCN=C(N)N)NC1=O | Kappa-type opioid receptor (Cavia porcellus, UniProt P41144) | 7.74 |

We now examine a further molecule.
Data request: Lookup: pIC50 / Kappa-type opioid receptor (Cavia porcellus, UniProt P41144) / `CC[C@H](C)[C@@H]1NC(=O)[C@H](CCCN=C(N)N)NC(=O)[C@H](CCCN=C(N)N)NC(=O)[C@@H](NC(=O)[C@H](Cc2ccccc2)NC(=O)CNC(=O)CNC(=O)[C@@H](N)Cc2ccc(O)cc2)CSSC(C)(C)[C@H](C(N)=O)NC(=O)[C@@H]2CCCN2C(=O)[C@H](CCCN=C(N)N)NC1=O`
Data returned: 9.00
